protocol.text: Selectivity index, ratio of IC50 for cytotoxicity against African green monkey Vero cells to IC50 for chloroquine-resistant Plasmodium falciparum W2
Type: toxicity, cell-based
condition.info: read-out: Ratio IC50
property: selectivity ratio

Solved entries:
>  <entry.smiles>
Cc1cc(N(CCCNc2ccnc3cc(Cl)ccc23)Cc2ccccn2)nc(Cl)n1

>  <selectivity ratio>
> 33.5

$$$$
>  <entry.smiles>
Cc1cc(N2CCCCC2)nc(N(CCCNc2ccnc3cc(Cl)ccc23)Cc2ccccn2)n1

>  <selectivity ratio>
> 10

$$$$
>  <entry.smiles>
Cc1cc(N(CCCNc2ccnc3cc(Cl)ccc23)Cc2ccccn2)nc(N2CCCC2)n1

>  <selectivity ratio>
> 69

$$$$
>  <entry.smiles>
Cc1cc(Cl)nc(N(CCCNc2ccnc3cc(Cl)ccc23)Cc2ccccn2)n1

>  <selectivity ratio>
> 13

$$$$

Query molecule follows.
Endpoint output: selectivity ratio of `Cc1cc(N2CCOCC2)nc(N(CCNc2ccnc3cc(Cl)ccc23)Cc2ccccn2)n1` . Value?
> 39.1

---

protocol.text: Selectivity index, ratio of IC50 for cytotoxicity against African green monkey Vero cells to IC50 for chloroquine-sensitive Plasmodium falciparum D6
Format: toxicity, cell-based
condition.info: read-out: Ratio IC50
property: selectivity ratio

Solved entries:
>  <entry.smiles>
Cc1cc(N(CCNc2ccnc3cc(Cl)ccc23)Cc2ccccn2)nc(N2CCCC2)n1

>  <property>
selectivity ratio

>  <observed.result>
> 331

$$$$
>  <entry.smiles>
CCN1CCN(c2cc(C)nc(N(CCNc3ccnc4cc(Cl)ccc34)Cc3ccccn3)n2)CC1

>  <property>
selectivity ratio

>  <observed.result>
> 270

$$$$
>  <entry.smiles>
Cc1cc(N(CCCNc2ccnc3cc(Cl)ccc23)Cc2ccccn2)nc(N2CCN(C)CC2)n1

>  <property>
selectivity ratio

>  <observed.result>
> 21.6

$$$$

Query compound follows.
Endpoint output: selectivity ratio of `Cc1cc(N(CCCNc2ccnc3cc(Cl)ccc23)Cc2cccs2)nc(N2CCCC2)n1` . Value?
> 229

---

Tested on: Vero
protocol.text: Cytotoxicity against African green monkey Vero cells up to 10 uM after 48 hrs by neutral red assay
Assay type: cell-based
condition.info: chlorocebus sabaeus
property: Activity

Solved entries:
>  <entry.smiles>
Cc1cc(N2CCCC2)nc(N(CCCNc2ccnc3cc(Cl)ccc23)Cc2ccccn2)n1

>  <observed.result>
Non-Toxic

$$$$
>  <entry.smiles>
Cc1cc(N2CCOCC2)nc(N(CCCNc2ccnc3cc(Cl)ccc23)Cc2ccccn2)n1

>  <observed.result>
Non-Toxic

$$$$
>  <entry.smiles>
Cc1cc(N(CCCNc2ccnc3cc(Cl)ccc23)Cc2ccccn2)nc(N2CCCCC2)n1

>  <observed.result>
Non-Toxic

$$$$
>  <entry.smiles>
CCN1CCN(c2nc(C)cc(N(CCNc3ccnc4cc(Cl)ccc34)Cc3ccccn3)n2)CC1

>  <observed.result>
Non-Toxic

$$$$

Endpoint output: Activity of `Cc1cc(N2CCCC2)nc(N(CCNc2ccnc3cc(Cl)ccc23)Cc2ccccn2)n1` . Value?
Non-Toxic

Same question, `Cc1cc(Cl)nc(N(CCCNc2ccnc3cc(Cl)ccc23)Cc2cccs2)n1` this time
Non-Toxic

Same question, `CCN1CCN(c2nc(C)cc(N(CCCNc3ccnc4cc(Cl)ccc34)Cc3cccs3)n2)CC1` this time
Non-Toxic

Same question, `Cc1cc(N(CCCNc2ccnc3cc(Cl)ccc23)Cc2cccs2)nc(N2CCN(C)CC2)n1` this time
Non-Toxic

Same question, `Cc1cc(N2CCOCC2)nc(N(CCCNc2ccnc3cc(Cl)ccc23)Cc2cccs2)n1` this time
Non-Toxic

The reported numbers originate from ChEMBL document CHEMBL4325903.
